Entry source: ChEMBL document CHEMBL3885861

Organism: Rattus norvegicus
experiment notes: Open TG-GATES - Regimen: Daily Repeat
Type: toxicity, organism-based, Sprague-Dawley
Design: regimen Daily Repeat, gender Male, age 6 weeks
experimental setup: in vivo, po, 0 mg/kg, […], tissue Plasma, route gavage, dose level Control, time 14 day
Quick rule: TBIL of at least 0.1 mg/dL means 1.0, below that means 0.0.

CCc1cc(C(N)=S)ccn1 [ETHIONAMIDE] : 1.0

Now take the following molecule into account.
Exercise: Reported TBIL at or above 0.1 mg/dL? C[C@H](CS)C(=O)N1CCC[C@H]1C(=O)O
Solution: 1.0

====

Could you please report measured Ca for the items listed next?
Organism: Rattus norvegicus
experiment notes: Open TG-GATES - Regimen: Single
Type: toxicity, organism-based, Sprague-Dawley
Set-up: regimen Single, gender Male, age 6 weeks
experimental setup: in vivo, po, 100 mg/kg, 24 h, tissue Plasma, route gavage, dose level Low
One number for each entry, in mg/dL.

CCc1cc(C(N)=S)ccn1 [ETHIONAMIDE] : 10.9
O=C(O)c1cn(C2CC2)c2cc(N3CCNCC3)c(F)cc2c1=O : 11.2
O=C(O)c1cc(/N=N/c2ccc(S(=O)(=O)Nc3ccccn3)cc2)ccc1O : 10.8

Exercise: Provide one value: measured Ca of C[C@H](CS)C(=O)N1CCC[C@H]1C(=O)O
Solution: 11.1

====

Species: Rattus norvegicus
experiment notes: Open TG-GATES - Regimen: Single
Type: toxicity, organism-based, Sprague-Dawley
Parameters: regimen Single, gender Male, age 6 weeks
experimental setup: in vivo, po, 0 mg/kg, 6 h, tissue Plasma, route gavage, dose level Control
Could you please report measured ALP for the items listed next?
Give bare numbers, in IU/L.

The following molecules have reported results that may help.
COc1ccc(Cc2nccc3cc(OC)c(OC)cc23)cc1OC [PAPAVERINE] : 1310.2
O=C(O)c1cc(/N=N/c2ccc(S(=O)(=O)Nc3ccccn3)cc2)ccc1O [SULFASALAZINE] : 989.2
Cn1c(=O)c2[nH]cnc2n(C)c1=O.O [THEOPHYLLINE] : 1402.8
CCc1cc(C(N)=S)ccn1 [ETHIONAMIDE] : 729.4
CN(C)CCC=C1c2ccccc2CCc2ccccc21 [AMITRIPTYLINE] : 1334.2

Please give ALP for each item listed below.
1. C[C@H](CS)C(=O)N1CCC[C@H]1C(=O)O [CAPTOPRIL]
2. NC(=O)N/N=C/c1ccc([N+](=O)[O-])o1 [NITROFURAZONE]
3. Clc1ccccc1CN1CCc2sccc2C1 [TICLOPIDINE]
4. O=C(O)c1cn(C2CC2)c2cc(N3CCNCC3)c(F)cc2c1=O [CIPROFLOXACIN]
5. NC(=O)N1c2ccccc2C=Cc2ccccc21 [CARBAMAZEPINE]
6. CC(=O)Oc1ccccc1C(=O)O [ASPIRIN]

Solution:
725.4
1461
821
839.4
858.4
815

Exercise: Provide one value: measured ALP of CSc1ccc2c(c1)N(CCC1CCCCN1C)c1ccccc1S2 (configuration not stated) [THIORIDAZINE]
Solution: 834

====

Organism: Rattus norvegicus
experiment notes: Open TG-GATES - Regimen: Single
Type: toxicity, organism-based, Sprague-Dawley
Set-up: regimen Single, gender Male, age 6 weeks
experimental setup: in vivo, po, 0 mg/kg, 24 h, tissue Plasma, route gavage, dose level Control
property label: DBIL (mg/dL)
Answers are plain numbers, in mg/dL.

The following compounds have reported results that may help.
COc1ccc(Cc2nccc3cc(OC)c(OC)cc23)cc1OC : 0
C[C@H](CS)C(=O)N1CCC[C@H]1C(=O)O : 0.082
CCc1cc(C(N)=S)ccn1 [ETHIONAMIDE] : 0.016

Please give DBIL for each item listed below.
1. CN(C)CCC=C1c2ccccc2CCc2ccccc21
2. NC(=O)N1c2ccccc2C=Cc2ccccc21 [CARBAMAZEPINE]
3. O=C(O)c1cc(/N=N/c2ccc(S(=O)(=O)Nc3ccccn3)cc2)ccc1O
4. CSc1ccc2c(c1)N(CCC1CCCCN1C)c1ccccc1S2 (stereo not given)
5. Clc1ccccc1CN1CCc2sccc2C1
6. Cn1c(=O)c2[nH]cnc2n(C)c1=O.O
7. COc1cc2c(c3oc(=O)c4c(c13)CCC4=O)[C@@H]1C=CO[C@@H]1O2

Solution:
1. 0.016
2. 0.088
3. 0.1
4. 0.016
5. 0.074
6. 0
7. 0.002
